System: KRAS-mutant PDC tumor spheroid with HUVEC/MSC, viability;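 note: spheroids exposed to agents for seven days before reading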
experiment: Anticancer human tumor 327498-153-R-J2-PDC patient-derived uterine carcinosarcoma cell line growth inhibition [KRAS2]; active = viability on the fitted dose curve at most 10% of control; inactive = the rest
settings: second compound 1 µM; first compound 3.16 µM
Possible outcomes: yes (active), no (inactive)

| compound | class |
| --- | --- |
| CC1(C)CCC(CN2CCN(c3ccc(C(=O)NS(=O)(=O)c4ccc(NCC5CCOCC5)c([N+](=O)[O-])c4)c(Oc4cnc5[nH]ccc5c4)c3)CC2)=C(c2ccc(Cl)cc2)C1 + C=CC(=O)N1CCN(c2nc(=O)n(-c3c(C)ccnc3C(C)C)c3nc(-c4c(O)cccc4F)c(F)cc23)C(C)C1 | no |
| COc1cc2nccc(Oc3ccc(NC(=O)C4(C(=O)Nc5ccc(F)cc5)CC4)cc3)c2cc1OC + C=CC(=O)N1CCN(c2nc(OCC3CCCN3C)nc3c2CCN(c2cccc4cccc(C)c24)C3)CC1CC#N | no |
| CC1(C)CCC(CN2CCN(c3ccc(C(=O)NS(=O)(=O)c4ccc(NCC5CCOCC5)c([N+](=O)[O-])c4)c(Oc4cnc5[nH]ccc5c4)c3)CC2)=C(c2ccc(Cl)cc2)C1 + COc1cc2nc(C)nc(NC(C)c3cc(N)cc(C(F)(F)F)c3)c2cc1OC1CCOC1 | no |
| COC(=O)c1ccc2c(C(=Nc3ccc(N(C)C(=O)CN4CCN(C)CC4)cc3)c3ccccc3)c(O)[nH]c2c1 + CNCc1ccccc1-c1csc(C(C)Nc2nc(C)nc3cc(OC)c(OC)cc23)c1 | yes |
